# MEASURED ON: T1, PDZD2_2, O15018
# T1 sequence (O15018 329-429, limits assumed, looked up): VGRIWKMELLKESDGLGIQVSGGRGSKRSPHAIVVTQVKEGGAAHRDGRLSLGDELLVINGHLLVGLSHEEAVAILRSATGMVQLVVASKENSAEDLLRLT
# TEST: holdup assay
# Design: key: below the threshold = too weak to quantify, mostly under pKd 3.1 to 4
# TEST CONTEXT: plain residues with an end cap or a label only (N-terminal biotin on a linker: ado-ado)
I would appreciate it if you labelled entries true when pKd is 4 or higher, otherwise false.

Test whether the binder QKNKDKEYYV [NRXN3_rs746444206, Q9Y4C0] records pKd of 4 or higher.
true

Test whether the binder TETASVCTKV [SLC23A1, Q9UHI7] records pKd of 4 or higher.
true

Test whether the binder EDLTKNHDEL [RCN1, Q15293] records pKd of 4 or higher.
false

Test whether the binder EEPEERHTEL [CES2, O00748] records pKd of 4 or higher.
true

Test whether the binder FVHPILQSAV [PRKCA, P17252] records pKd of 4 or higher.
true
